- system: UniProtKB P04585
- experimental_protocol: Enzymatic (fluorometric FRET) assay for determining the inhibition constant (Ki)
- Format: biochemical
- stated_conditions: Ki, EDANS/DABCYL substrate, equation of Henderson
- Description: Enzymatic assay for determining the inhibition constant (Ki) of synthetic compounds targeting the HIV protease This is a fluorometric assay based on the cleavage by protease of a substrate carrying a donor group (EDANS) and an acceptor group (DABCYL) on each side of the cleavage site, interacting together through fluorescence resonance energy transfer (FRET) as described by Matayoshi et al. (Science 247:[…], 1990). […] Graphs are traced and the Ki determined using GraphPad Prism software v. […]
attribute_measured: log10(Ki) (log10 of the value in nM)
In our notation, the value equals log10 of Ki in nM.

Solved entries (count: 3):
> print(dat)
                                smiles.code  attribute.measured  measured.result
1  Cc1ccc(S(=O)(=O)N(CC(C)C)[C@@H](CCCCNC(=O)N[C@H](Cc2ccccc2)C(N)=O)C(=O)O)cc1           log10(Ki)             2.12
2  Cc1ccc(S(=O)(=O)N(CC(C)C)[C@@H](CCCCNC(=O)N[C@@H](Cc2ccccc2)C(=O)NCC(C)C)C(=O)O)cc1           log10(Ki)             1.67
3  COc1ccc(CN(Cc2ccc3c(c2)OCO3)C(=S)NCCCC[C@@H](CO)N(CCC(C)C)S(=O)(=O)c2ccc(N)cc2)cc1OC           log10(Ki)             0.46

# next compound below
Problem: Any idea what log10(Ki) was measured for `Cc1ccc(S(=O)(=O)N(CC(C)C)[C@@H](CCCCNC(=O)NNC(=O)c2ccccc2O)C(=O)O)cc1` ?
Result: 1.74

---

- Test system: MT-4
- experimental_protocol: Cytotoxicity assay in vitro (MTT assay, virus omitted)
- Assay type: cell-based
- stated_conditions: cell culture IC50, same MTT assay with virus omitted; average of at least two determinations
Please respond with 1 when measured CCIC50 is strictly beneath 10 µM, and with 0 in all other cases.

Some solved entries appear below for comparison.
> print(dat)
                                smiles.code  class
1  CC(C)CN([C@H](CO)CCCCNC(=O)N(Cc1ccc2c(c1)OCO2)Cc1ccc2c(c1)OCO2)S(=O)(=O)c1ccc(N)cc1      0
2  CC(C)CN([C@H](CO)CCCCNC(=O)N(Cc1ccccc1)Cc1ccc2c(c1)OCO2)S(=O)(=O)c1ccc(N)cc1      0
3  Cc1ccc(S(=O)(=O)N(CC(C)C)[C@H](CO)CCCCNC(=O)N(Cc2ccccc2)Cc2ccccc2[N+](=O)[O-])cc1      1

Problem: API: query returns whether the compound falls strictly under 10 µM in CCIC50. Query: `Cc1ccc(S(=O)(=O)N(CC(C)C)[C@H](CO)CCCCNC(=O)N(Cc2ccccc2)Cc2cccc([N+](=O)[O-])c2)cc1`
Result: 1

Problem: API: query returns whether the compound falls strictly under 10 µM in CCIC50. Query: `Cc1ccc(S(=O)(=O)N(CC(C)C)[C@H](CO)CCCCNC(=O)N(Cc2ccccc2)Cc2ccc([N+](=O)[O-])cc2)cc1`
Result: 1

Problem: API: query returns whether the compound falls strictly under 10 µM in CCIC50. Query: `CC(C)CN([C@H](CO)CCCCNC(=O)N(Cc1ccc(F)cc1)Cc1ccc2c(c1)OCO2)S(=O)(=O)c1ccc(N)cc1`
Result: 0
